Tested on: GP2d
Assay: Cell viability (CellTiterGlo, 72 h), Example 1
Type: cell-based
Conditions: single agent, read-out: Cmpd. B IC50
pIC50: −log10 of the molar value.
Measured endpoint: pIC50

Chemical structure: Cn1cnc2c(F)c(Nc3ccc(Br)cc3F)c(C(=O)NOCCO)cc21
Measured value: 6.12

---

System: LS411N
Assay: Cell viability (CellTiterGlo, 72 h), Example 1
Type: cell-based
Conditions: Homo sapiens, LS-411N, single agent, read-out: Cmpd. A IC50
pIC50: −log10 of the molar value.

Chemical structure: Cc1nc(NC(=O)N2CCC[C@H]2C(N)=O)sc1-c1ccnc(C(C)(C)C(F)(F)F)c1
pIC50: 5.06

---

System: HT-29
Assay: Cell viability (CellTiterGlo, 72 h), Example 1
Format: cell-based
Conditions: Homo sapiens, HT-29, 72 h, HT-29*, repeat experiment performed at end of study, single agent, read-out: Cmpd. B IC50
Measured endpoint: IC50 (nM)

Chemical structure: Cn1cnc2c(F)c(Nc3ccc(Br)cc3F)c(C(=O)NOCCO)cc21
Tested on: HT-29
Units text: nM
Measured value: 66.5

---

System: SW48
Test: Cell viability (CellTiterGlo, 72 h), Example 1
Assay type: cell-based
Details: Homo sapiens, single agent, read-out: Cmpd. A IC50
Measured endpoint: IC50 (nM)

Chemical structure: Cc1nc(NC(=O)N2CCC[C@H]2C(N)=O)sc1-c1ccnc(C(C)(C)C(F)(F)F)c1
Tested on: SW48
Units text: nM
Measured value: 1410

---

System: DLD-1
Test: Cell viability (CellTiterGlo, 72 h), Example 1
Assay type: cell-based
Details: Homo sapiens, single agent, read-out: Cmpd. A IC50

Chemical structure: Cc1nc(NC(=O)N2CCC[C@H]2C(N)=O)sc1-c1ccnc(C(C)(C)C(F)(F)F)c1
IC50: > 10.8 µM

---

Tested on: C2BBe1
Assay: Cell viability (CellTiterGlo, 72 h), Example 1
Assay type: cell-based
Conditions: Homo sapiens, single agent, read-out: Cmpd. A IC50
Measured endpoint: IC50 (µM)

Chemical structure: Cc1nc(NC(=O)N2CCC[C@H]2C(N)=O)sc1-c1ccnc(C(C)(C)C(F)(F)F)c1
Tested on: C2BBe1
Measured endpoint: IC50
Measured value: 9.2

---

Test system: HCT-15
Experiment: Cell viability (CellTiterGlo, 72 h), Example 1
Format: cell-based
Details: Homo sapiens, single agent, read-out: Cmpd. A IC50

Chemical structure: Cc1nc(NC(=O)N2CCC[C@H]2C(N)=O)sc1-c1ccnc(C(C)(C)C(F)(F)F)c1
IC50: 6.72 µM

---

System: HCT 116
Assay: Cell viability (CellTiterGlo, 72 h), Example 1
Format: cell-based
Details: Homo sapiens, HCT-116, 72 h, HCT 116*, repeat experiment performed at end of study, single agent, read-out: Cmpd. B IC50
pIC50: −log10 of the molar value.

Chemical structure: Cn1cnc2c(F)c(Nc3ccc(Br)cc3F)c(C(=O)NOCCO)cc21
Tested on: HCT 116
pIC50: 6.13

---

Test system: HT-29
Assay: Cell viability (CellTiterGlo, 72 h), Example 1
Type: cell-based
Settings: Homo sapiens, HT-29, 72 h, HT-29, single agent, read-out: Cmpd. A IC50
Text: The colorectal cancer cell lines SW1417, COLO 205, LS411N, HT-29, RKO, OUMS-23, SW620, LoVo, SW480, SW837, COLO-678, LS123-NCI—H747, HCT-15, HCT116, DLD-1, T84, SW948, LS180, GP2d, HuTu 80, CW-2, SW48, NCI—H716, C2Bbe1, SNU—C1 and KM12 are obtained from the American Type Culture Collection (ATCC) and maintained in their respective culture medium as specified by the provider. These colorectal cancer cell lines have the following mutation status: […]
pIC50: −log10 of the molar value.

Compound: Cc1nc(NC(=O)N2CCC[C@H]2C(N)=O)sc1-c1ccnc(C(C)(C)C(F)(F)F)c1 [COMPOUND A]
pIC50: 5.28
